# EXPERIMENTAL DETAILS: Approximate solubility by incremental addition of solvent
# Assay type: physicochemical
# MEASUREMENT SETUP: dichloromethane, organic solvent or mixture, thermodynamic from solid, room temperature
# Procedure: Solubility: Approximate solubilities were determined by incremental addition of solvent to about 10 mg the compound. If the substance was not dissolved by addition of a total of at least 10 ml solvent, the solubility is indicated as <1 mg/ml. […] Approximate solubilities were determined for amorphous Compound (I) at room temperature. […]
REPORTED METRIC: solubility

MOLECULE: CN1CCN(C[C@H]2COc3cc4ncnc(Nc5cccc(Br)c5F)c4cc3O2)CC1 [Amorphous form]
RESULT: > 100 mg/mL

###

# EXPERIMENTAL DETAILS: Approximate solubility by incremental addition of solvent
# Format: physicochemical
# MEASUREMENT SETUP: isopropyl acetate, organic solvent or mixture, thermodynamic from solid, room temperature
REPORTED METRIC: solubility

COMPOUND: CN1CCN(C[C@H]2COc3cc4ncnc(Nc5cccc(Br)c5F)c4cc3O2)CC1 [Form D]
RESULT: 90 to 180 mg/mL

###

# EXPERIMENTAL DETAILS: pH dependent solubility tests in 0.1 M HCl, citrate buffer and USP phosphate buffers
# Assay type: physicochemical
# MEASUREMENT SETUP: citrate buffer, aqueous buffer, thermodynamic from solid; effective pH 6.25

COMPOUND: CN1CCN(C[C@H]2COc3cc4ncnc(Nc5cccc(Br)c5F)c4cc3O2)CC1 [Amorphous form]
solubility [µg/mL]: 9630

###

# EXPERIMENTAL DETAILS: pH dependent solubility tests in 0.1 M HCl, citrate buffer and USP phosphate buffers
# Format: physicochemical
# MEASUREMENT SETUP: USP phosphate buffer (nominal pH 7.4), aqueous buffer, thermodynamic from solid; effective pH 7.47

COMPOUND: CN1CCN(C[C@H]2COc3cc4ncnc(Nc5cccc(Br)c5F)c4cc3O2)CC1 [Form D]
solubility, mg/mL: 0.084

###

# EXPERIMENTAL DETAILS: Approximate solubility by incremental addition of solvent
# Assay type: physicochemical
# MEASUREMENT SETUP: ethyl acetate/n-heptane (1/3, v/v), organic solvent or mixture, thermodynamic from solid, Ethyl acetate/n-heptane (1/3), room temperature

MOLECULE: CN1CCN(C[C@H]2COc3cc4ncnc(Nc5cccc(Br)c5F)c4cc3O2)CC1 [Form D]
solubility: ~3000 µg/mL

###

# EXPERIMENTAL DETAILS: Solubility tests in potential process solvent mixtures
# Assay type: physicochemical
# MEASUREMENT SETUP: 25 °C, aqueous with cosolvent or surfactant or cyclodextrin, thermodynamic from solid; Isopropanol - water 1:1

MOLECULE: CN1CCN(C[C@H]2COc3cc4ncnc(Nc5cccc(Br)c5F)c4cc3O2)CC1 [Form D]
solubility: 20.3 mg/mL

###

# EXPERIMENTAL DETAILS: Approximate solubility by incremental addition of solvent
# Assay type: physicochemical
# MEASUREMENT SETUP: 2-propanol/heptane (1/1, v/v), organic solvent or mixture, thermodynamic from solid, Propanol, 2-/heptane 1/1, room temperature
REPORTED METRIC: solubility

MOLECULE: CN1CCN(C[C@H]2COc3cc4ncnc(Nc5cccc(Br)c5F)c4cc3O2)CC1 [Form D]
REPORTED METRIC: solubility
RESULT: > 20 mg/mL

###

# EXPERIMENTAL DETAILS: Approximate solubility by incremental addition of solvent
# Format: physicochemical
# MEASUREMENT SETUP: ethanol/water (1/1, v/v), aqueous with cosolvent or surfactant or cyclodextrin, thermodynamic from solid, Ethanol/water (1/1), room temperature
REPORTED METRIC: solubility

MOLECULE: CN1CCN(C[C@H]2COc3cc4ncnc(Nc5cccc(Br)c5F)c4cc3O2)CC1 [Amorphous form]
RESULT: > 100 mg/mL

###

# EXPERIMENTAL DETAILS: Approximate solubility by incremental addition of solvent
# Type: physicochemical
# MEASUREMENT SETUP: acetonitrile/water (1/1, v/v), aqueous with cosolvent or surfactant or cyclodextrin, thermodynamic from solid, Acetonitrile/water (1/1), room temperature
# Procedure: Solubility: Approximate solubilities were determined by incremental addition of solvent to about 10 mg the compound. If the substance was not dissolved by addition of a total of at least 10 ml solvent, the solubility is indicated as <1 mg/ml. […] Approximate solubilities were determined for amorphous Compound (I) at room temperature. […]
REPORTED METRIC: solubility

COMPOUND: CN1CCN(C[C@H]2COc3cc4ncnc(Nc5cccc(Br)c5F)c4cc3O2)CC1 [Amorphous form]
RESULT: > 110 mg/mL

###

# EXPERIMENTAL DETAILS: pH dependent solubility tests in 0.1 M HCl, citrate buffer and USP phosphate buffers
# Assay type: physicochemical
# MEASUREMENT SETUP: USP phosphate buffer (nominal pH 6.8), aqueous buffer, thermodynamic from solid; effective pH 6.95

MOLECULE: CN1CCN(C[C@H]2COc3cc4ncnc(Nc5cccc(Br)c5F)c4cc3O2)CC1 [Amorphous form]
U: µg/mL
solubility: 316

###

# EXPERIMENTAL DETAILS: Approximate solubility by incremental addition of solvent
# Assay type: physicochemical
# MEASUREMENT SETUP: acetic acid/water (1/3, v/v), aqueous with cosolvent or surfactant or cyclodextrin, thermodynamic from solid, Acetic acid/water (1/3), room temperature

MOLECULE: CN1CCN(C[C@H]2COc3cc4ncnc(Nc5cccc(Br)c5F)c4cc3O2)CC1 [Amorphous form]
solubility: > 130 mg/mL

###

# EXPERIMENTAL DETAILS: Approximate solubility by incremental addition of solvent
# Format: physicochemical
# MEASUREMENT SETUP: 1-methoxy-2-propanol, organic solvent or mixture, thermodynamic from solid, Propanol, 1-methoxy-2-, room temperature

MOLECULE: CN1CCN(C[C@H]2COc3cc4ncnc(Nc5cccc(Br)c5F)c4cc3O2)CC1 [Form D]
solubility: > 200 mg/mL

###

# EXPERIMENTAL DETAILS: Approximate solubility by incremental addition of solvent
# Format: physicochemical
# MEASUREMENT SETUP: isobutyl alcohol, organic solvent or mixture, thermodynamic from solid, Isobutylalcohol, room temperature

MOLECULE: CN1CCN(C[C@H]2COc3cc4ncnc(Nc5cccc(Br)c5F)c4cc3O2)CC1 [Form D]
solubility: > 136 mg/mL

###

# EXPERIMENTAL DETAILS: pH dependent solubility tests in 0.1 M HCl, citrate buffer and USP phosphate buffers
# Format: physicochemical
# MEASUREMENT SETUP: USP phosphate buffer (nominal pH 7.4), pH 7.5, aqueous buffer, thermodynamic from solid; effective pH 7.50

MOLECULE: CN1CCN(C[C@H]2COc3cc4ncnc(Nc5cccc(Br)c5F)c4cc3O2)CC1 [Amorphous form]
solubility, µg/mL: 94

###

# EXPERIMENTAL DETAILS: Approximate solubility by incremental addition of solvent
# Type: physicochemical
# MEASUREMENT SETUP: acetone/water (1/1, v/v), aqueous with cosolvent or surfactant or cyclodextrin, thermodynamic from solid, Acetone/water (1/1), room temperature
REPORTED METRIC: solubility

COMPOUND: CN1CCN(C[C@H]2COc3cc4ncnc(Nc5cccc(Br)c5F)c4cc3O2)CC1 [Amorphous form]
REPORTED METRIC: solubility
RESULT: > 120 mg/mL

###

# EXPERIMENTAL DETAILS: pH dependent solubility tests in 0.1 M HCl, citrate buffer and USP phosphate buffers
# Type: physicochemical
# MEASUREMENT SETUP: USP phosphate buffer (nominal pH 6.8), aqueous buffer, thermodynamic from solid; effective pH 6.97

COMPOUND: CN1CCN(C[C@H]2COc3cc4ncnc(Nc5cccc(Br)c5F)c4cc3O2)CC1 [Form D]
solubility [µg/mL]: 210

###

# EXPERIMENTAL DETAILS: Solubility tests in potential process solvent mixtures
# Format: physicochemical
# MEASUREMENT SETUP: ethyl acetate - heptane 1:3, 25 °C, organic solvent or mixture, thermodynamic from solid
REPORTED METRIC: solubility (mg/mL)

COMPOUND: CN1CCN(C[C@H]2COc3cc4ncnc(Nc5cccc(Br)c5F)c4cc3O2)CC1 [Form D]
REPORTED METRIC: solubility
RECORDED NUMBER: 6.3

###

# EXPERIMENTAL DETAILS: Approximate solubility by incremental addition of solvent
# Assay type: physicochemical
# MEASUREMENT SETUP: methanol/TBME (1/2, v/v), organic solvent or mixture, thermodynamic from solid, Methanol/TBME (1/2), room temperature

COMPOUND: CN1CCN(C[C@H]2COc3cc4ncnc(Nc5cccc(Br)c5F)c4cc3O2)CC1 [Amorphous form]
solubility: > 140 mg/mL

###

# EXPERIMENTAL DETAILS: Approximate solubility by incremental addition of solvent
# Type: physicochemical
# MEASUREMENT SETUP: ethanol, organic solvent or mixture, thermodynamic from solid, room temperature

COMPOUND: CN1CCN(C[C@H]2COc3cc4ncnc(Nc5cccc(Br)c5F)c4cc3O2)CC1 [Amorphous form]
solubility: > 100 mg/mL

// data source = patent US12545686B2
